Recorded composite z-score, one value per entry.
- test.system: Alpha-bungarotoxin (Bungarus multicinctus)
- experiment.summary: alpha-bungarotoxin binders on microarray, profiling panel, artefact control for SMM control protein annotation, biochemical, small-molecule microarray, Alexa647 label, 635/667 nm fluorescence (AID 1117)
- condition.description: alpha-BTX-A647 binding fluorescence, higher = more signal
test.readout: composite z-score

molecule: COc1ccc(CCNC(=O)[C@@]2(Sc3ccc(C)cc3)CC(=O)N(Cc3cc(C(F)(F)F)cc(C(F)(F)F)c3)[C@@H]2c2ccc(CO)cc2I)cc1
test.system: Alpha-bungarotoxin (Bungarus multicinctus)
test.readout: composite z-score
result: 1.73
--
molecule: Cc1ccc(C(C)CC(O)C2C=CC3C(=O)N(c4ccccc4)C(=O)C3N2Nc2ccc(C(C)C)cc2)o1 (stereo not given)
test.system: Alpha-bungarotoxin (Bungarus multicinctus)
test.readout: composite z-score
result: 1.64
--
molecule: NCCCCCNC(=O)[C@@H]1C[C@@H]2C(=O)N[C@@H](CCCCN)C(=O)N2[C@@H]1c1cccc(OCCO)c1
test.system: Alpha-bungarotoxin (Bungarus multicinctus)
test.readout: composite z-score
result: -0.066
--
molecule: CCOC(=O)C[C@H]1[C@H](OC(=O)c2ccc(C(=O)c3ccccc3)cc2)[C@@H](NC(=O)c2ccc3ccccc3c2)c2cc(OCCCO)ccc2N1C(=O)c1ccccc1
test.system: Alpha-bungarotoxin (Bungarus multicinctus)
test.readout: composite z-score
result: 1.04
--
molecule: C[N+](C)(C)CCCC[C@@H]1NC(=O)[C@@H]2C[C@H](C(=O)O)[C@H](c3ccc(O)cc3)N2C1=O
test.system: Alpha-bungarotoxin (Bungarus multicinctus)
test.readout: composite z-score
result: 0.0213
